biological target: S. pyogenes SKKanGAS, kanamycin survival, BacTiterGlo, 6 h; experiment: S. pyogenes SKKanGAS kanamycin growth inhibitors – SKKanGAS strain, luminescence, dose confirmation, streptokinase promoter inhibitor project, dose response (AID 1902);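 note: lower survival reflects blocked streptokinase promoter driving kanamycin resistance gene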
ENDPOINT NAME: EC50

Would you please look over these solved cases?
COMPOUND | EC50
Cc1ccccc1NC1=C/C(=N\S(=O)(=O)c2cccs2)c2ccccc2C1=O | 1.44 µM
Cc1ccc(C)c(-c2csc(N)c2C(=O)OC(C)C)c1 | 3.11 µM
Cn1ccc(=Nc2ccc(NC(=O)c3ccc(N=c4ccn(C)c5ccc([N+](=O)[O-])cc45)cc3)cc2)cc1 | 0.357 µM
COc1c(CC=C(C)C)cc(C2CC(=O)c3c(O)cc(O)cc3O2)cc1CC=C(C)C (stereo not given) | 1.99 µM
O=c1[nH]c(NNC(=S)NCc2ccccc2)nc2c1C1(CCCCC1)Cc1ccccc1-2 | 1.33 µM
Cc1cccc(/C=c2\s/c(=C\C(=O)C(C)(C)C)[nH]c2=O)c1 | 2.34 µM
O=C1N/C(=N\N=C\c2cccnc2)SC1Cc1ccc(SC(F)F)cc1 (stereo not given) | 3.08 µM
O=C(Nc1nc2ccccc2[nH]1)c1cccc(Cl)c1 | 10.4 µM

Return EC50 for the following compound: O=[N+]([O-])c1cccc(/C=C/c2ccc3cccc(O)c3n2)c1
2.25 µM

Given COC(=O)c1c(NC(NC(=O)C(C)(C)C)C(Cl)(Cl)Cl)sc2c1CCC2 (stereo not given) , respond with its EC50.
3.28 µM

* * *

molecular target: S. pyogenes SKKanGAS, kanamycin survival, BacTiterGlo, 6 h; test: S. pyogenes SKKanGAS kanamycin growth inhibitors – SKKanGAS strain, luminescence, dose confirmation, streptokinase promoter inhibitor project, dose response (AID 1902)
The source made the active and inactive calls.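 How the source made its calls: active means EC50 no more than a set limit of log units above the highest dose; inactive means the rest.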
// one of Yes = active, No = inactive, no free text

COMPOUND | ASSAYED SYSTEM | ASSIGNED CATEGORY
CCCc1nc(NCc2ccccc2)c(C#N)c2c1CCCC2 | S. pyogenes SKKanGAS, kanamycin survival, BacTiterGlo, 6 h | Yes
C/C(=N\NC(=O)COc1ccccc1-c1ccccc1)c1ccc(O)cc1O | S. pyogenes SKKanGAS, kanamycin survival, BacTiterGlo, 6 h | Yes
CC1(C)OC(C(O)(c2ccccc2)c2ccccc2)[C@@H](C(O)(c2ccccc2)c2ccccc2)O1 (some centres not stated) | S. pyogenes SKKanGAS, kanamycin survival, BacTiterGlo, 6 h | Yes
COc1cc(C(=O)NNC(=S)NC(=O)c2ccc(Cl)cc2)cc(OC)c1OC | S. pyogenes SKKanGAS, kanamycin survival, BacTiterGlo, 6 h | Yes
COc1ccc(-c2cc3nc4n(c(=O)c3s2)CCC4)cc1 | S. pyogenes SKKanGAS, kanamycin survival, BacTiterGlo, 6 h | Yes

Each compound tested received a call. Report the one for Cc1ccc(NC(=O)CN2C(=O)S/C(=C/c3ccc(-c4cc(C(=O)O)ccc4C)o3)C2=O)cc1C .
Yes

For CN=C1S/C(=C\c2ccc(N3CCOCC3)c(F)c2)C(=O)N1C , what call appears in the results of this test?
Yes

Status in this test for N/C(=N\N=C/c1ccc(Br)cc1)N/N=C\c1ccc(Br)cc1 ?
Yes

Status in this test for [O-][n+]1c2ccccc2[n+]([O-])c2cc(O)ccc21 ?
Yes

What is the recorded call for this compound in the test? Cc1nn(-c2ccccc2)c(Cl)c1/C=N/Nc1ccc(S(=O)(=O)Nc2ccccc2C(=O)O)cc1[N+](=O)[O-]
Yes

What outcome does the record of this test show for COc1ccc(CN2C(=O)c3ccccc3C(/C=N\OCc3ccc(C)cc3)C2=O)cc1 (configuration not stated) ?
Yes

What is the recorded call for this compound in the test? CC(=O)c1c(O)cc(O)c(C(C)=O)c1O
Yes

// outcome(item) with item = Cc1ccccc1/C=C/C(=O)c1ccc([N+](=O)[O-])o1
Yes

Call for entry COc1ccc(NP(=O)(Oc2ccc(Cl)cc2)Oc2ccc(Cl)cc2)cc1OC :
Yes

What did this assay record as the result for COc1ccc(Oc2nc(C(F)(F)F)nc3ccccc23)cc1 ?
Yes

Recorded test call requested for O=C(CSc1nnc(CNC(=O)c2ccccc2)o1)NCCc1ccccc1
No

// outcome(item) with item = O=C(/C=C/c1cccs1)NC(=S)NNC(=O)Cc1cccs1
Yes

Entry CCN(CC)c1ccc(C=N/C(C#N)=C(\N)C#N)cc1 : call = ?
No

Which result was noted for this compound in the test: NNC(=O)/C(=N/Nc1ccccc1)S(=O)(=O)c1ccc(Cl)cc1
Yes

Could you kindly confirm the outcome this assay logged for Clc1ccc(N2COC3c4cccc5cccc(c45)C32)cc1 (configuration not stated) ?
Yes

Each compound tested received a call. Report the one for Cc1ccc(-c2nn(-c3ccccc3)cc2/C=N/O)cc1 .
Yes

Hey, what did the test say about Cc1cc(C)cc(NS(=O)(=O)c2ccc(NC(=S)NC(=O)c3cccs3)cc2)c1 ?
Yes

* * *

biological target: S. pyogenes SKKanGAS, kanamycin survival, BacTiterGlo, 6 h; experiment: S. pyogenes SKKanGAS kanamycin growth inhibitors – SKKanGAS strain, luminescence, dose confirmation, streptokinase promoter inhibitor project, dose response (AID 1902);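 active = EC50 no more than a set limit of log units above the highest dose; inactive = the rest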
Field 'call' accepts active, inactive

Recorded results for 5 molecules are shown here.
MOLECULE | ASSIGNED CATEGORY
Cc1cc(C)c2nc(NNC(=O)c3ccc(S(=O)(=O)N4CC(C)CC(C)C4)cc3)sc2c1 (configuration not stated) | active
CCOc1cc(N2CCOCC2)c(OCC)cc1NC(=O)C1=NN(c2cccc(C)c2)C(=O)CC1 | active
COc1ccc(/C=N/Nc2cc(C)nc(-n3nc(C)cc3C)n2)c(OC)c1 | active
COc1cc(N=c2c([N+](=O)[O-])nn(-c3ccc4c(c3)OCCO4)n2O)cc(OC)c1 | active
CCc1nn(CCCC(=O)NCc2ccccc2Br)c(=O)c2cc3occc3n12 | active

Could you kindly confirm the outcome this assay logged for CCOc1cccc(/C=N/Nc2ccc(S(=O)(=O)N(CC)CC)cn2)c1O ?
active

* * *

target: S. pyogenes SKKanGAS, kanamycin survival, BacTiterGlo, 6 h; test: S. pyogenes SKKanGAS kanamycin growth inhibitors – SKKanGAS strain, luminescence, dose confirmation, streptokinase promoter inhibitor project, dose response (AID 1902);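 note: lower survival reflects blocked streptokinase promoter driving kanamycin resistance gene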
Reported EC50 values follow for various compounds

Recorded results for 6 compounds are shown here.
COMPOUND | VAL
CC(NC(=O)Nc1nnc(C(F)(F)F)s1)(C(F)(F)F)C(F)(F)F | 2.97 µM
O=C(N/N=C/c1sc2ccccc2c1O)c1cccc2ccccc12 | 2.52 µM
CN1CCN(C(c2ccc(C(F)(F)F)cc2)c2cc(Cl)c3cccnc3c2O)CC1 (centres undefined) | 0.682 µM
CC(C)C[C@H](NC(=O)c1[nH]cnc1C(=O)N[C@@H](C)C(=O)OC(C)(C)C)C(=O)OCc1ccccc1 | 7.06 µM
Cc1cccc(-n2c(N)c(-c3nc4ccccc4n3C)c3nc4ccccc4nc32)c1 | 2.26 µM
CCn1cc(C(=O)O)c(=O)c2cc(F)c(N3CCN(S(=O)(=O)c4ccc(NC(C)=O)cc4)CC3)cc21 | 4.65 µM

Give me measured EC50, please, for this compound: CC(C)=CCC/C(C)=C/Cc1c(O)ccc(C(=O)/C=C/c2ccc(O)cc2)c1O
1.02 µM

Let me know recorded EC50 for Cc1cccc(C(=O)NC(C(=O)Nc2nc(-c3ccccn3)cs2)C(C)C)c1 (centres undefined) , thanks.
5.46 µM

Return value of EC50 for input CCN(CC)C(=S)SCC(=O)Nc1nc(-c2ccccc2)c(-c2ccccc2)o1 , no commentary.
1.26 µM

* * *

biological target: S. pyogenes SKKanGAS, kanamycin survival, BacTiterGlo, 6 h; assay: S. pyogenes SKKanGAS kanamycin growth inhibitors – SKKanGAS strain, luminescence, dose confirmation, streptokinase promoter inhibitor project, dose response (AID 1902);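 active = EC50 no more than a set limit of log units above the highest dose; inactive = the rest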;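 note: lower survival reflects blocked streptokinase promoter driving kanamycin resistance gene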
Please answer using one outcome listed in active, inactive

Reference set (5 entries):
COMPOUND | ASSIGNED CATEGORY
Cc1ccsc1C(=O)N(c1nc2ccccc2s1)c1c(C)cccc1C | active
O=C(CSc1nc2nc(-c3cccs3)cc(C(F)(F)F)c2c(=O)[nH]1)Nc1ccc(F)c(F)c1 | active
Oc1ccccc1/C=N/NC(=S)NC1CC2CCC1C2 (centres undefined) | active
COC(=O)c1ccc(CSc2n[nH]c(=S)s2)o1 | active
O=C(Nc1cccc(-c2nnc(-c3ccccc3)o2)c1)c1ccc(Br)o1 | active

Entry O=[N+]([O-])c1cc(S(=O)(=O)Nc2ccccc2)ccc1N1CCN(c2ccccc2)CC1 : call = ?
active

Record request — test call for N#CC1=C(N)SC(N)=C(C#N)C1c1c(Cl)cccc1Cl
active

* * *

biological target: S. pyogenes SKKanGAS, kanamycin survival, BacTiterGlo, 6 h; assay: S. pyogenes SKKanGAS kanamycin growth inhibitors – SKKanGAS strain, luminescence, dose confirmation, streptokinase promoter inhibitor project, dose response (AID 1902);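 note: lower survival reflects blocked streptokinase promoter driving kanamycin resistance gene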
Active and inactive are the calls of the source.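 Rule for the calls: active = EC50 no more than a set limit of log units above the highest dose; inactive = the rest.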
I would appreciate it if you answered using one of these outcomes: active, inactive

Would you please look over these solved cases?
MOLECULE | ASSIGNED CATEGORY
Cc1ccc(C)c(S(=O)(=O)N2CCN(Cc3ccc(O)c4ncccc34)CC2)c1 | active
CCC(O)(CC)C(=O)N/N=C/c1cc(Br)cc(Br)c1O | active
CCCOC(=O)c1ccc(Oc2c(-c3ccc(OC)cc3O)n[nH]c2C)cc1 | active

Test call, this molecule: COCCSc1ccccc1C(=O)N1CCCC(C)C1 (stereo not drawn)
inactive

Please let me know the test result on file for COc1ccc(C(=O)Nc2nnc(-c3ccccc3)o2)cc1OC .
active
